Data provenance is the supplement of paper PMC10724198.

tested on: Saccharomyces cerevisiae; assay: protein stability index of tFT-peptide fusion (C-terminal peptide) (PSI (0-1 scale)); higher = more stable (slower turnover); details: genetic background: wild type; temperature: 30 C;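 note: PSI is a weighted mean of sequencing reads over stability bins, variants kept only with over 10 reads, mCherry proximal and sfGFP distal, peptide attached via GGGS linker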
readout type: protein stability index

Answer with the recorded protein stability index for the sequence listed here: "SKTEKELSNREF"
0.659

# return recorded protein stability index for entry "PPYPPTPHQTSH"
0.641

Look up protein stability index of "SLVWVGGRRWPI" and report it.
0.73

Hello, please tell me recorded protein stability index for this one: "RKDEKRGTVIIA"
0.62

Give the reported value of protein stability index for this record: "SPLFLPPPVPPP"
0.599

----------
system: Saccharomyces cerevisiae; experiment: protein stability index of tFT-peptide fusion (C-terminal peptide) (PSI (0-1 scale)); higher = more stable (slower turnover); details: genetic background: das1 deletion; temperature: 37 C
Given measured protein stability index, output met if it is greater than or equal to 0.5 and not met if not.

Here are 5 sequences together with their reported answers.
{"residue sequence": "FGPRLLRVMRLL", "class assignment": "met"}
{"residue sequence": "LPPFLSSLPSSP", "class assignment": "met"}
{"residue sequence": "MALAVRVVKCGA", "class assignment": "not met"}
{"residue sequence": "RWGLFIGIVIGF", "class assignment": "not met"}
{"residue sequence": "LACGIDGYYWRH", "class assignment": "met"}

Answer whether protein stability index of "GAVRGWGWVSFV" is greater than or equal to 0.5.
met

Assess whether reported protein stability index for "VIYYVRVGLVLS" sits at 0.5 or higher.
not met

Evaluate "IRSLRPFLLPLF" : protein stability index at minimum 0.5?
met

// inclusive: protein stability index at least 0.5? input: "RFFVLSFFFLVS"
not met

Hello, I need to know if "TSLPPSPPPSPT" has measured protein stability index not below 0.5. Thanks!
met

Given the entry "DYSVIPSLALLP" , answer whether its protein stability index meets or surpasses 0.5.
met

Evaluate "WFSVRQLVFVSG" : protein stability index at minimum 0.5?
not met

Answer whether protein stability index of "TLCCLVCSQGVV" is greater than or equal to 0.5.
met

Is it the case that "DVVVIFGILCYC" has protein stability index reaching or exceeding 0.5?
not met

Please tell me: is the sequence "SPSSLPRPLFLS" at or over 0.5 in terms of protein stability index?
met
